Parameter: relative integration efficiency (log2). Scope: all listed entries.
System: VchCAST RNA-guided transposition machinery (E. coli BL21(DE3) host, lacZ target)
protocol_details: relative integration efficiency (T-RL orientation) vs wild-type transposon end (log2 (normalized fold change)); transposon end mutated: right end (5 bp flank + 75 bp right end); higher = more efficient transposition
property: relative integration efficiency (log2)

sequence	value_reported
CGCGCTGTTGATACAACCATAAAATGATAATTACACCCATAAATTGATAATTATCACACCCATAAATTGATATTGCCTCTGATCATAGTCAGACCAACATTGCTACGACCCGTATTCGCACCGACAC	0.101
ACATTTGTTGATACAACCATAAAATGATAATTAATAATTATTTATAATCAGCACACCCATAAATTGATAATTATCACACCCATAAATTGATATTGCCTCTGATCATAGTCAGACCAACATTGCTACG	-4.17
ACATTTGTTGATACAACCCTAAAATGATAATTACACCCATAAATTCATCATTATCACACCCAATTTAACTATAACGCTCTGATCATAGTCAGACCAACATTGCTACGACCCGTATTCGCACCGACAC	-4.59
ACATTTGTTGATACACCCATAAATTGATAATTACAACCATAAAATGATAATTATCACACCCATAAATTGATAATTACTCTGATCATAGTCAGACCAACATTGCTACGACCCGTATTCGCACCGACAC	-0.421
ACATTTGTTGATACAACCATAAAATGATAATTACACCCATAAATTGATAATTATCACACCCATAAATTGATATTGCCTCTTCATGGTCTAAACTTCAGTAAGTTTACGACATTTTCAGCACCGACAC	-0.93
ACATTTGTTGATACTTGGATAAAATGATAATTACACCCATAAATTGATAATTATCACACCCATAAATTGATATTGCCTCTGATCATAGTCAGACCAACATTGCTACGACCCGTATTCGCACCGACAC	-0.966
ACATTTGTGGATACAACCCTAAAATGATAATTACACCCATAAATTGATAATTATCACCCCCAATTTAACTATAACGCTCTGATCATAGTCAGACCAACATTGCTACGACCCGTATTCGCACCGACAC	-2.2
ACATTTGTTGATACAACCATAAGTTGATATTTTCACCCATAAATTGATAATTATCACAACCATAAGTTGATATTTTCTCTGATCATAGTCAGACCAACATTGCTACGACCCGTATTCGCACCGACAC	-0.215
AACTTTGTTGATACAACCATAAAATGATAATTACACCCATAAATTGATAATTATCACACCCATAAATTGATATTGCCTCTGATCATAGTCAGACCAACATTGCTACGACCCGTATTCGCACCGACAC	-0.217
ACATTTGTTGATAAAACCATAAAATGATTTTTAGAAACCATAATCTGAAATTATCACACCCATAAATTGATATTGCCTCTGATCATAGTCAGACCAACATTGCTACGACCCGTATTCGCACCGACAC	-2.97

Origin of measurements: the supplement of paper PMC10201428
